cleaved RNA product abundance: recorded values
test system: Bacillus subtilis; test: cleaved RNA product abundance (RNA/gDNA barcode ratio) relative to median wild-type variant (ratio to wild type); higher = more accumulation of the downstream cleavage product; settings: experiment (reporter, strain, medium): exp 8a: truncated aprE reporter, strain BJT201 with 2% xylose (RNase J1 expressed); cleavage site: glnRA (positions -5 to +31 mutated)

- biosequence: "CGACATGTCCCGCTTCTTTCATTAATCCGTTAGCAACCGTGTTACTATATAAATTTACCTTTTAAGAGGAGGAAT"
  testedOn: "Bacillus subtilis"
  cleaved RNA product abundance: 0.271
- biosequence: "CGACATGTCCCGCTTCTTTCATTAATCCTTTAGCAACTGCTTTGCTATATACATTTACCTTTTAAGAGGAGGAAT"
  testedOn: "Bacillus subtilis"
  cleaved RNA product abundance: 0.292
- biosequence: "CGACATGTCCCGCTTCTTTCATTAATCCGTTTGCAACTGTTTTACTATATACATTTACCTTTTAAGAGGAGGAAT"
  testedOn: "Bacillus subtilis"
  cleaved RNA product abundance: 0.879
- biosequence: "CGACATGTCCCGCTTCTTTCATTAATCCCTTAGCAACTGTTTTGCTATATATATTTACCTTTTAAGAGGAGGAAT"
  testedOn: "Bacillus subtilis"
  cleaved RNA product abundance: 0.163

###

system: Bacillus subtilis; test: cleaved RNA product abundance (RNA/gDNA barcode ratio) relative to median wild-type variant (ratio to wild type); higher = more accumulation of the downstream cleavage product; conditions: experiment (reporter, strain, medium): exp 4a: truncated aprE reporter, strain BJT201 with 2% xylose (RNase J1 expressed); cleavage site: cggR-gapA (positions -7 to +36 mutated)

- biosequence: "ACAGACGAAGGAGCCGCAAAGAAGTTATTAAGGGATCAATAATACCTCAATATAAATATCTCTCACTTATTTAAA"
  testedOn: "Bacillus subtilis"
  cleaved RNA product abundance: 0.146
- biosequence: "ACAGACGAAGGAGCCGCAAAGAAGTTATTAAGGGATAAATAATCCCTCAATATAACTATCTCTCACTTATTTAAA"
  testedOn: "Bacillus subtilis"
  cleaved RNA product abundance: 0.156
- biosequence: "ACAGACGAAGGAGCCGCAAAGATGTTATTAAGGGATGAATAATCCCTCAATATAAATATCTCTCACTTATTTAAA"
  testedOn: "Bacillus subtilis"
  cleaved RNA product abundance: 0.996
- biosequence: "ACAGACGAAGGAGCCGCAAAGAAGTTATTAAGGAATGAATAACCCCTCAATATAAATATCTCTCACTTATTTAAA"
  testedOn: "Bacillus subtilis"
  cleaved RNA product abundance: 0.101

###

test system: Bacillus subtilis; assay: cleaved RNA product abundance (RNA/gDNA barcode ratio) relative to median wild-type variant (ratio to wild type); higher = more accumulation of the downstream cleavage product; conditions: experiment (reporter, strain, medium): exp 2b: truncated aprE reporter, strain BJT200; cleavage site: cggR-gapA (positions -7 to +36 mutated)
assayEndpoint: cleaved RNA product abundance

- biosequence: "ACAGACGAAGGAGCCGCAAAGAAGTTATTAAGGGATGAATAATCGCTCAATATATATATCTCTCACTTATTTAAA"
  measuredNumber: 0.113
- biosequence: "ACAGACGAAGGAGCCGCAAAGAAGTTATTACGGGAAGAATAATCCCTCAATATAAATATCTCTCACTTATTTAAA"
  measuredNumber: 0.152
- biosequence: "ACAGACGAAGGAGCCGCAAAGATGTTATTAAGGGGTGAATAATCCCTCAATATAAATATCTCTCACTTATTTAAA"
  measuredNumber: 0.656
- biosequence: "ACAGACGAAGGAGCCGCAAAGTAGTTATTAAGGGATGAATAATCCCTCAATATAAATATCTCTCACTTATTTAAA"
  measuredNumber: 0.953
- biosequence: "ACAGACGAAGGAGCCGCAAAGAAGTTATTAATGGATGAATAATCCCTCAATATAAAAATCTCTCACTTATTTAAA"
  measuredNumber: 0.133
- biosequence: "ACAGACGAAGGAGCCGCAAAGAAGTTATTAAGTGATGAATAATCCTTCAATATAAATATCTCTCACTTATTTAAA"
  measuredNumber: 0.112
- biosequence: "ACAGACGAAGGAGCCGCAAAGAAGTTATTAAGGTATGAATTATCCCTCAATATAAATATCTCTCACTTATTTAAA"
  measuredNumber: 0.15

The reported numbers originate from the supplement of paper PMC11780869.
